Catalogue of melting point readings, one per entry.

[
  {
    "COMPOUND": "CNc1nc(C)c(C(=O)c2sc(NC)nc2C)s1",
    "QUANTITY KIND": "melting point",
    "TEST VALUE": "184 to 185 °C"
  },
  {
    "COMPOUND": "CCC(=O)N(C)c1cccc(-c2ccnc3c(C(=O)c4cccs4)cnn23)c1",
    "QUANTITY KIND": "melting point",
    "TEST VALUE": "186 to 187 °C"
  }
]

Given the compound `Cc1nc(Cl)c2cc(C)oc2n1` , what is its reported melting point? 47.6 to 48.1 °C

Given the compound `CCOC(=O)c1cc(S(N)(=O)=O)c(Cl)cc1Cl` , what is its reported melting point? 119 to 122 °C

meta.source: a melting point compilation (Tetko et al.; mined from patent text by program, amines drawn as free bases though some values may be those of a salt)
